Data provenance is patent US6258830A.

- MEASUREMENT NOTES: Solubility of AGN in various aqueous solutions at 35° ± 0.5° C. (Table I)
- Type: physicochemical
- APPLIED CONDITIONS: organic solvent or mixture; 80% Ethanol/Water, 35° C.
ASSAY READOUT: solubility (mg/mL)
Answers are plain numbers, in mg/mL.

Data request: Report solubility for CCOC(=O)c1ccc(C#Cc2ccc3c(c2)C(C)(C)CCS3)nc1 [AGN] please.
Data returned: 8.22

----------
- MEASUREMENT NOTES: Saturated solubility of AGN in the vehicle of the gels (HPLC), with Student's t-test against gel B
- Assay type: physicochemical
- APPLIED CONDITIONS: gel vehicle with propionic acid, hexylene glycol 2%, polysorbate 40 0.4%, poloxamer 407 0.4%; propionic acid for carbomer
ASSAY READOUT: solubility

Data request: Report solubility for CCOC(=O)c1ccc(C#Cc2ccc3c(c2)C(C)(C)CCS3)nc1 please.
Data returned: 118 µg/mL

----------
- MEASUREMENT NOTES: Solubility of AGN in various aqueous solutions at 35° ± 0.5° C. (Table I)
- Type: physicochemical
- APPLIED CONDITIONS: 0.30% Polysorbate 40, 35° C.
ASSAY READOUT: solubility (µg/mL)
Answers are plain numbers, in µg/mL.

Data request: Report solubility for CCOC(=O)c1ccc(C#Cc2ccc3c(c2)C(C)(C)CCS3)nc1 [AGN] please.
Data returned: 18.3

----------
- MEASUREMENT NOTES: Saturated solubility of AGN in the vehicle of the gels (HPLC), with Student's t-test against gel B
- Format: physicochemical
- APPLIED CONDITIONS: gel vehicle with propionic acid, hexylene glycol 0%, polysorbate 40 0.0%, poloxamer 407 0.2%; propionic acid for carbomer
ASSAY READOUT: solubility
Could you write the number and then its unit?

Data request: Report solubility for CCOC(=O)c1ccc(C#Cc2ccc3c(c2)C(C)(C)CCS3)nc1 please.
Data returned: 67.9 µg/mL

----------
- MEASUREMENT NOTES: Saturated solubility of AGN in the vehicle of the gels (HPLC), with Student's t-test against gel B
- Type: physicochemical
- APPLIED CONDITIONS: gel vehicle with propionic acid, hexylene glycol 0%, polysorbate 40 0.4%, poloxamer 407 0.2%; propionic acid for carbomer
ASSAY READOUT: solubility (µg/mL)
One number for each entry, in µg/mL.

Data request: Report solubility for CCOC(=O)c1ccc(C#Cc2ccc3c(c2)C(C)(C)CCS3)nc1 please.
Data returned: 77.5

----------
- MEASUREMENT NOTES: Solubility of AGN in various aqueous solutions at 35° ± 0.5° C. (Table I)
- Type: physicochemical
- APPLIED CONDITIONS: organic solvent or mixture; 40% PEG-400/Water, 35° C.
ASSAY READOUT: solubility
Could you write the number and then its unit?

Data request: Report solubility for CCOC(=O)c1ccc(C#Cc2ccc3c(c2)C(C)(C)CCS3)nc1 [AGN] please.
Data returned: 4.4 µg/mL

----------
- MEASUREMENT NOTES: Saturated solubility of AGN in the vehicle of the gels (HPLC), with Student's t-test against gel B
- Type: physicochemical
- APPLIED CONDITIONS: gel vehicle with propionic acid, hexylene glycol 0%, polysorbate 40 0.0%, poloxamer 407 0.0%; propionic acid for carbomer
ASSAY READOUT: solubility (µg/mL)
One number for each entry, in µg/mL.

Data request: Report solubility for CCOC(=O)c1ccc(C#Cc2ccc3c(c2)C(C)(C)CCS3)nc1 please.
Data returned: 14.5

----------
- MEASUREMENT NOTES: Solubility of AGN in PEG 400
- Assay type: physicochemical
- APPLIED CONDITIONS: peg 400, organic solvent or mixture
ASSAY READOUT: solubility (µg/mL)
One number for each entry, in µg/mL.

Data request: Report solubility for CCOC(=O)c1ccc(C#Cc2ccc3c(c2)C(C)(C)CCS3)nc1 please.
Data returned: 2200

----------
- MEASUREMENT NOTES: Saturated solubility of AGN in the vehicle of the gels (HPLC), with Student's t-test against gel B
- Type: physicochemical
- APPLIED CONDITIONS: gel vehicle with propionic acid, hexylene glycol 2%, polysorbate 40 0.2%, poloxamer 407 0.2%; propionic acid for carbomer
ASSAY READOUT: solubility (µg/mL)
Answers are plain numbers, in µg/mL.

Data request: Report solubility for CCOC(=O)c1ccc(C#Cc2ccc3c(c2)C(C)(C)CCS3)nc1 [AGN] please.
Data returned: 93.8

----------
- MEASUREMENT NOTES: Solubility of AGN in various aqueous solutions at 35° ± 0.5° C. (Table I)
- Assay type: physicochemical
- APPLIED CONDITIONS: 2% Oleth-20/Water, 35° C.
ASSAY READOUT: solubility (µg/mL)
Give bare numbers, in µg/mL.

Data request: Report solubility for CCOC(=O)c1ccc(C#Cc2ccc3c(c2)C(C)(C)CCS3)nc1 please.
Data returned: 149

----------
- MEASUREMENT NOTES: Solubility of AGN in various aqueous solutions at 35° ± 0.5° C. (Table I)
- Type: physicochemical
- APPLIED CONDITIONS: organic solvent or mixture; 80% PEG-400/Water, 35° C.
ASSAY READOUT: solubility (µg/mL)
Numbers only, in µg/mL.

Data request: Report solubility for CCOC(=O)c1ccc(C#Cc2ccc3c(c2)C(C)(C)CCS3)nc1 [AGN] please.
Data returned: 2160

----------
- MEASUREMENT NOTES: Saturated solubility of AGN in the vehicle of the gels (HPLC), with Student's t-test against gel B
- Type: physicochemical
- APPLIED CONDITIONS: gel vehicle with propionic acid, hexylene glycol 0%, polysorbate 40 0.2%, poloxamer 407 0.4%; propionic acid for carbomer
ASSAY READOUT: solubility

Data request: Report solubility for CCOC(=O)c1ccc(C#Cc2ccc3c(c2)C(C)(C)CCS3)nc1 [AGN] please.
Data returned: 80 µg/mL
